All figures here come from patent US20200216495A1.

System under test: Tau40 P301L protein (human)
Procedure summary: cell-based or functional assay
Square brackets hold non-standard residues; d marks the D form. Ends that are not written are not given here.
Quantity name: IC50, Tau40 assay (ThT)
Could you kindly put the unit after your number?

Take a look at these entries with their results.
Entry [dH][dR][dL][dK][dV][dR][dW][dH] [hrlkvrwh (PEPTIDE ID NO: 213)] has what IC50, Tau40 assay (ThT)?
0.82 µM

Entry [dH][dL][dK][dI][dR][dI][dH][dY] [hlkirihy (PEPTIDE ID NO: 259)] has what IC50, Tau40 assay (ThT)?
1.25 µM

Entry [dF][dR][dL][dK][dL][dR][dH][dW] [frlklrhw (PEPTIDE ID NO: 116)] has what IC50, Tau40 assay (ThT)?
1.24 µM

Others:
Entry [dH][dY][dH][dI][dR][dI][dK][dL] [hyhirikl (PEPTIDE ID NO: 300)] has what IC50, Tau40 assay (ThT)?
1.94 µM

Entry [dR][dR][dL][dR][dI][dH][dW] [rrlrihw (PEPTIDE ID NO: 290)] has what IC50, Tau40 assay (ThT)?
1.79 µM

Entry [dR][dR][dL][dK][dV][dR][dW][dW] [rrlkvrww (PEPTIDE ID NO: 225)] has what IC50, Tau40 assay (ThT)?
0.88 µM

Entry [dR][dI][dR][dW][dR][dW] [rirwrw (PEPTIDE ID NO: 50)] has what IC50, Tau40 assay (ThT)?
2.02 µM
